Where do the numbers come from? From the nanobody polyreactivity screen of Harvey et al. (2022).

# Assay method text: yeast display, Sf9 membrane polyspecificity reagent, FACS + sequencing; frameworks hold sequencing errors
Measured parameter: polyreactivity (PSR sort gate)

Input sequence: QVQLVESGGGLVQAGGSLRLSCAASGFIFGRYAMGWYRQAPGKERELVAAISSGDDTDYADSVKGRFTISRDNAKNTVYLQMNSLKPEDTAVSYCARSRFWSPVIYRRTIEFDSWGQGTQVTVSS
Measured: low polyreactivity

Input sequence: QVQLVESGGGLVQAGGSLRLSCAASGSIFGDYAMGWYRQAPGKERELVADISSGGSTTYADSVKGRFTISRDNAKNTVYLQMNSLKPEDTAVYYCNAERGVPYGYWGQGTQVTVSS
Measured: low polyreactivity

----------
# Assay method text: yeast display, Sf9 membrane polyspecificity reagent, FACS + sequencing; frameworks hold sequencing errors

Input sequence: QVQLVDSGGGLVQASGSLRLSCAASGSIFLFYAMGGYRQAPGKERQVVAAITSGGRTYYADSVKGRFTISRDNAKNTVYLQMNSLKPEDTAVYYCNAVRFYSIGLGQDDYWGQGTQVTVSS
polyreactivity (PSR sort gate): low polyreactivity

Input sequence: QVQLVESGGGLVQAGGSLRLSCAASGSTFVRNVMGWYRQAPGKERELDAAITRSGDTTYYADSVKGRFTISRDNAKNTVYLQMNSLKPEDTAVYYCAKRTFVRRGSIYPIDDYWGQGTQVTVSS
polyreactivity (PSR sort gate): low polyreactivity

Input sequence: QVQLVESGGGLVHAGGSLRLSCADSGSIFGWYVMGWYRQAPGKVREFVAAISSVGSTYYADSVKGRFTISRDNAKNTVSLQMNSLKPEDTAVYYCAKLRYPYLFWDDSEYWGQGTQVTVSS
polyreactivity (PSR sort gate): low polyreactivity

Input sequence: QVQLVESGGGLVQAGGSLRLSCAASGIIFGTYAMGWYRQAPGKERELVAAINWSGGSTYYADSVKGRFTISRDNAKNTVYLQMNSLKPEDTAVYYCAADGNEYDYWGQGTQVTVSS
polyreactivity (PSR sort gate): low polyreactivity

Input sequence: QVQLVESGGGLVQAGGSLRLSCAASGFTFSSYAMGWYRQAPGKERELVAAITQSGGRTYYADSVKGRFTISRDNAKNTVYLQMNSLKPEDTAVYSCAADVTLWYDYWGQGTQVTVSS
polyreactivity (PSR sort gate): low polyreactivity

Input sequence: QVQLVESGGGLVQAGGSLRLSCAASGIIFYSYVMGWYRQAPGKERELVAVISRSGGRTYYADSVKGRFTISRDNAKNTVYLQMISLKPEDTAVYYWAAALGVALNDYWGQGTQVTVSS
polyreactivity (PSR sort gate): high polyreactivity

Input sequence: QVQLVESGGGLVQAGASLRLSCAASGSIFYDNAMGWYRQAPGKERELVASIRWSGDSTYYADSVKGRITISRDNAKNTVYLQMNSLKPEDTAVYYCAADPVEPYFTAIAYDYWGQGTQVTVSS
polyreactivity (PSR sort gate): low polyreactivity

Input sequence: QVQLVESGGGLVQAGGSLRLSCAASGSNFVNNAMGWYRQAPGKERELVASITWSGGRTYYADSVKGRFTISRDNAKNTVDLQMNSLKPEDTAVYYCNKRQYSRTFRYGYWGQGTEVTVSS
polyreactivity (PSR sort gate): high polyreactivity

Input sequence: QVQLVESGGGLVQAGGSLRLSCAASGITFYKYVMGWYRQAPGKETELVAAISSVGSTYYADSVKGRFTISRDNAKNTVYLQMNSLKPEDTAVYYCAAKYWKCYHYGFGYWGQGTQVTVSS
polyreactivity (PSR sort gate): high polyreactivity

Input sequence: QVQLVESGGGLVQAGGSLRLSCAASGSTFFSYAMGWYRQAPGKERDLVAAITSNGGTTHYADSVKGRFTISRDNAKNTVYLQMNSLKPEDTADYYCAKAQGHVRGSRGLQGGRYDYWGQGTQVTVSS
polyreactivity (PSR sort gate): low polyreactivity

Input sequence: QVQLVESGGGLVQAGGSLRLSCAASGRTYQANTMGWYRQAPVKEREFVAAISTSVGSTYYADSVKGRFTISRDNAKNTVYLQMKSLKPEDTALFYCAKASQSWGRDDYYYWGQGTQVTVSS
polyreactivity (PSR sort gate): low polyreactivity

----------
# Assay method text: yeast display, Sf9 membrane polyspecificity reagent, FACS + sequencing; frameworks hold sequencing errors

Input sequence: QVQLVESGGGLGQAGGSLRLSCAASGITFGDYAMGWYIQAPGKERELVAAISTSGVRTYYADSVKGRFTISRDNAKNTVYLQMNSLKTEDTAVYYCAAKYYGEMYYWGQVTQVTVSS
polyreactivity (PSR sort gate): low polyreactivity

Input sequence: QVQLVESGGGLVQAGGSLRLSCAASGRIFGVNTMGWYRQEPGKEREMVAVIRESDGSTYYADSVKGRFTISRDNAKNTVYLQMNSLKPEDTAVYYCAKDWYRSPSTYEWNSQYGYWGQGTQVTVSS
polyreactivity (PSR sort gate): low polyreactivity

Input sequence: QVQLVESGGGLVQAGGSLRLSCAASGSIFVVYAMGWYRQAPGKERELVAGISGRDGSTYYADSVKGRFTISRDNGKNTVYLQMNSLKPEDTAVYYSARVYWGQGTQVTVSS
polyreactivity (PSR sort gate): low polyreactivity

----------
# Assay method text: yeast display, Sf9 membrane polyspecificity reagent, FACS + sequencing; frameworks hold sequencing errors
Measured parameter: polyreactivity (PSR sort gate)

Input sequence: QVQLVESGGGLVQAGGSLRLSCAASGSIFHHNAMGWYRQAPGKERELVAAISSRSGNTYYADSVKGRFTISRDNAKNTVYLQMNSLKPEDTAVYYCAAGKRLSYSTYDSWGQGTQVTVSS
Measured: high polyreactivity
//
Input sequence: QVQLVESGGGLVQAVGSLSLICAASGSTFLKYTMGWYRQAPWKERELVAAISKSGGSTYYADSVKGRFTISRDNAKNTVYLQMNSLKPEDTAVYYCAKGRYWVSSYGYGYWVQGTQVTVSS
Measured: high polyreactivity

----------
# Assay method text: yeast display, Sf9 membrane polyspecificity reagent, FACS + sequencing; frameworks hold sequencing errors
Measured parameter: polyreactivity (PSR sort gate)

Input sequence: QVQLVESGGGLVQAGGSLRLSCAASGSTFGYYAMGWYRQAPGKERELVAAISRGDSTNYADSVKGRFTISRDNAKNTVYLQMNSLKPEDTAVYYCAADQLNVCREYVEYDYWGQGTQVTVAS
Measured parameter: polyreactivity (PSR sort gate)
Measured: low polyreactivity
--
Input sequence: QVQLVESGGGLVQAGGSLRLSCAASGFTFHYYAMGWYRQAPGKERELVAAISWSSGRTYYADSVKGRFTISRDNAKNTVYLQMNSLKPEDTAVYYCAASSYNRRDYWGQGTQVTVSS
Measured parameter: polyreactivity (PSR sort gate)
Measured: high polyreactivity
--
Input sequence: QVQLVESGGGLVQAGGSLRLSCAASGNTFLPNAMGWYRQAPGKERELVAAISNSGGSTYYADSVKGRFTISRDNAKNTVYLQMNSLKPEDTAVYYCAKRQWFPYYRGRDYWGQGTQVTVSS
Measured parameter: polyreactivity (PSR sort gate)
Measured: high polyreactivity
--
Input sequence: QVQLVESGGGLVQAGGSLRLSCAASGNIFRIYAMGWYRQAPGKERALVAAITSRGAITNYADSVKGRFTISRDYAKNTVYLQMISLKPEDTAVYYCAASYRRLTGVGADEYWGQGTQVTVSS
Measured parameter: polyreactivity (PSR sort gate)
Measured: high polyreactivity
--
Input sequence: QVQLVESGGGIVQAGGSLRLSCAASGSIYGYAMGWYRQAPGKERELVAAISGRGGRTYYADSVKGRFTISRDNAKNTVYLQMNSLKPEDTAVYYCNVQWRYPYHYTVDYWGQGTQVTVSS
Measured parameter: polyreactivity (PSR sort gate)
Measured: high polyreactivity
--
Input sequence: QVQLVESGGGLVQAGGSLRLSCAASGSIFYYNAMGWNRQAPGKERELVAASTTRGGSTYYADSVKGRFTISRDNAKNTVYLQMYSLKPVDTEVYYCARSSRGKLDYWGQGTQVTVSS
Measured parameter: polyreactivity (PSR sort gate)
Measured: low polyreactivity
--
Input sequence: QVQLVESGGGLVQAGGSLRLSCAASGRIFRINAMGWYRQAPGKERELVATISSGGGSTYADSVKGRFTISRDNAKTTVYLQMNSLKPEDTAVYYCAARSRIGRYTYDYWGQGTQVTVSS
Measured parameter: polyreactivity (PSR sort gate)
Measured: high polyreactivity
--
Input sequence: QVQLVESGGGLVQAGGSLRLSCAASGSTFPIYAMGWYRQAPGKERELVAAITRSGGSTNYADSVKGRFTISRDNAKNTVYLQMNSLKPEDTAVYYCNRTRYRSFHYDYWGQGTQVTVSS
Measured parameter: polyreactivity (PSR sort gate)
Measured: high polyreactivity
--
Input sequence: QVQLVESGGGLVQAGGSLRLSCAASGSIFVGYVMGWYRQAPGKERELVAAISRSGGRTYYADSVKGRFTISRDNAKNTVYLQMNSLKPEDTAVYYCNADVIDLDYDYWGQGTQVTVSS
Measured parameter: polyreactivity (PSR sort gate)
Measured: low polyreactivity
--
Input sequence: QVQLVESGGGLVQAGGSLRLICAASGSTFRNYAMGWYRQAPGKDRELVAAISRGDGTYYADSVKWRFTISRDNAKNTVYLLMNSLKPEYSAVYYCAAAYRGRQNPMGFWGQGTQVTVSS
Measured parameter: polyreactivity (PSR sort gate)
Measured: high polyreactivity
--
Input sequence: QVQLVESGGGLVQAGGSLRLSCAASGSIFYSNAMGWSRPAPGKEWELVAGITWTGGSTYYADSVKGRFTISRDNAKNTVYLQMNSLKPEYTEVYYCADRVYYRTVLGGYYYWGQGTQVTVSS
Measured parameter: polyreactivity (PSR sort gate)
Measured: low polyreactivity
